test.protocol: yeast display, Sf9 membrane polyspecificity reagent, FACS + sequencing; frameworks hold sequencing errors
recorded.metric: polyreactivity (PSR sort gate)

QVQLVESGGGLVQAGGSLRLSCAASGITFQYYAMGWYRQAPGKERELVAAITSSGVSTYYADSVKGRFTISRDNAKNTVYLQMNSLKPEDTAVYYCNTVVRGWSTSAYDYWGQGTQVTVSS | low polyreactivity
QEQLQESGGGLVQAGGDLRLSCAESGNIFRDYIMGWYRQAPGKEREFVAGIDRGANTNYADSVKGRFTISRDNAKNTVYLQMNSLKPEDTAVYYCAVHTAIVPDFIYWGQGTQVTVSS | low polyreactivity
QVQLVESGGGLVHAGGSLRLSCAASGNIFRYNAMGWYRQAPGKERELVAAISSVGTTNYADSVKGRFTISRDNAKNTVYLQMNSLKPEDSAVYYCAAVAFQGGYWYDYWGQGTQVTVSS | low polyreactivity

The values you see were collected from the nanobody polyreactivity screen of Harvey et al. (2022).
